- Target under test: TC-PTP (Homo sapiens)
- Sequence (P17706 whole entry, species assumed): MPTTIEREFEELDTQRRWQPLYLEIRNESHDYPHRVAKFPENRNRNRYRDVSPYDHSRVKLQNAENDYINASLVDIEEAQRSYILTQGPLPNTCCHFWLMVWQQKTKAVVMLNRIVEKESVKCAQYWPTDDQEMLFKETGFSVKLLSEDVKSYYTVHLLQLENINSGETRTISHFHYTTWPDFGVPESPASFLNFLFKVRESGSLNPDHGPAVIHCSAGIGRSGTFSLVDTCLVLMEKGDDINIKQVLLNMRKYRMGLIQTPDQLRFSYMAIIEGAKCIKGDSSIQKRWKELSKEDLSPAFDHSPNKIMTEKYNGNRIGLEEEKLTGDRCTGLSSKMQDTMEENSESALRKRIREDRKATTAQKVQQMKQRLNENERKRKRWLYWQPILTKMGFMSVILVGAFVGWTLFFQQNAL
- Protocol notes: PTP selectivity panel: TC-PTP
- Assay type: biochemical
- Condition info: read-out: IC50 (μM) TC-PTP
Endpoint: IC50

// query Quick one: give measured IC50 for `O=C(O)c1cc2c(C#Cc3cccc(C(F)(F)F)c3)c(-c3ccccc3)oc2cc1O`
// result 5.7 µM

###

- Protocol notes: Oral and intravenous pharmacokinetics in mice
- Assay type: in vivo
- Condition info: mouse, blood; mice, IV 5 mg/kg, data normalized to 25 mg/kg dose; read-out: Clearance (converted)
Endpoint: clearance (mL/min/kg)
Give bare numbers, in mL/min/kg.

// query Quick one: give measured clearance for `O=C(O)c1cc2c(C#Cc3cccc(C(F)(F)F)c3)c(-c3ccccc3)oc2cc1O`
// result 15.6

###

- Target under test: Lyp (Homo sapiens, UniProt Q9Y2R2)
- Sequence (Q9Y2R2 whole entry): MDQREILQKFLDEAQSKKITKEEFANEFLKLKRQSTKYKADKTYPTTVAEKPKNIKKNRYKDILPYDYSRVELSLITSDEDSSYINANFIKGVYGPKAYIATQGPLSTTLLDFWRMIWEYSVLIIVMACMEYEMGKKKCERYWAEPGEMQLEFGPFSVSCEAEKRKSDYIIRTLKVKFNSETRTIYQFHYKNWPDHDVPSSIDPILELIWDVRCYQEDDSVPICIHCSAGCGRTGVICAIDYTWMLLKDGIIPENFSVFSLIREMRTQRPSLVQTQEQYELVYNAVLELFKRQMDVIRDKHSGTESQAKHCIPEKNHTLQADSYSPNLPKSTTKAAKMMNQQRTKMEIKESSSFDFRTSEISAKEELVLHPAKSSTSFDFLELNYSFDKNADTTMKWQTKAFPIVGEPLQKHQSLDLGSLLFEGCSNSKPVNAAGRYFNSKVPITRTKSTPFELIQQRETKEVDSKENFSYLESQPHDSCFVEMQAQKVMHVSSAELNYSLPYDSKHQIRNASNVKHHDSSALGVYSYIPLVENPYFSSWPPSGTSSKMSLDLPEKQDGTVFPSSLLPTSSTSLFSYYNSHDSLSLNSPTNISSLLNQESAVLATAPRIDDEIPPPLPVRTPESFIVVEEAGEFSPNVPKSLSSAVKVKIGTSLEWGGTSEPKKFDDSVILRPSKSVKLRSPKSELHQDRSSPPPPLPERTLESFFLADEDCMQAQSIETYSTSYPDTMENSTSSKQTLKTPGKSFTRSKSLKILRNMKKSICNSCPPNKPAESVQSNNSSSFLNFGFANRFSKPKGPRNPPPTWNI
- Protocol notes: biochemical
- Assay type: biochemical
Exercise: for every item that follows, state its recorded IC50.
Record the result as a number with its unit.

Compound	Target under test	Endpoint	Val
O=C(O)COc1ccc(-c2oc3cc(O)c(C(=O)O)cc3c2C#Cc2cccc(Cl)c2)cc1	Lyp (Homo sapiens, UniProt Q9Y2R2)	IC50	7.6 µM

From here, focus on the item given below.
// query Quick one: give measured IC50 for Cn1c(-c2ccccc2C(F)(F)F)c(I)c2cc(C(=O)O)c(O)cc21 [Compound 207a]
// result 75 µM

###

- Target under test: VHX (Homo sapiens, UniProt Q9NRW4)
- Sequence (Q9NRW4 whole entry): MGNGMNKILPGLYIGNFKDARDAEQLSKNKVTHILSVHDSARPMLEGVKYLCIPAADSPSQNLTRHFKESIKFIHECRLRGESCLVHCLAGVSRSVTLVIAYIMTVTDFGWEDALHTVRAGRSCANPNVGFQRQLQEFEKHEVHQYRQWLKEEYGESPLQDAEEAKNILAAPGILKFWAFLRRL
- Protocol notes: biochemical
- Format: biochemical
Endpoint: IC50 (µM)
Numbers only, in µM.

Examples from the recorded data:
Molecule	Endpoint	Val
Cn1c(-c2ccccc2C(F)(F)F)c(I)c2cc(C(=O)O)c(O)cc21 [Compound 207a]	IC50	56
O=C(O)c1cc2c(C#Cc3ccc(OC(F)(F)F)cc3)c(-c3ccccc3)oc2cc1O	IC50	1.9

From here, focus on the item given below.
// query Quick one: give measured IC50 for `O=C(O)c1cc2c(C#Cc3cccc(C(F)(F)F)c3)c(-c3ccccc3)oc2cc1O`
// result 1.4

###

- Target under test: CD45 (Homo sapiens, UniProt P08575)
- Sequence (P08575 26-1306): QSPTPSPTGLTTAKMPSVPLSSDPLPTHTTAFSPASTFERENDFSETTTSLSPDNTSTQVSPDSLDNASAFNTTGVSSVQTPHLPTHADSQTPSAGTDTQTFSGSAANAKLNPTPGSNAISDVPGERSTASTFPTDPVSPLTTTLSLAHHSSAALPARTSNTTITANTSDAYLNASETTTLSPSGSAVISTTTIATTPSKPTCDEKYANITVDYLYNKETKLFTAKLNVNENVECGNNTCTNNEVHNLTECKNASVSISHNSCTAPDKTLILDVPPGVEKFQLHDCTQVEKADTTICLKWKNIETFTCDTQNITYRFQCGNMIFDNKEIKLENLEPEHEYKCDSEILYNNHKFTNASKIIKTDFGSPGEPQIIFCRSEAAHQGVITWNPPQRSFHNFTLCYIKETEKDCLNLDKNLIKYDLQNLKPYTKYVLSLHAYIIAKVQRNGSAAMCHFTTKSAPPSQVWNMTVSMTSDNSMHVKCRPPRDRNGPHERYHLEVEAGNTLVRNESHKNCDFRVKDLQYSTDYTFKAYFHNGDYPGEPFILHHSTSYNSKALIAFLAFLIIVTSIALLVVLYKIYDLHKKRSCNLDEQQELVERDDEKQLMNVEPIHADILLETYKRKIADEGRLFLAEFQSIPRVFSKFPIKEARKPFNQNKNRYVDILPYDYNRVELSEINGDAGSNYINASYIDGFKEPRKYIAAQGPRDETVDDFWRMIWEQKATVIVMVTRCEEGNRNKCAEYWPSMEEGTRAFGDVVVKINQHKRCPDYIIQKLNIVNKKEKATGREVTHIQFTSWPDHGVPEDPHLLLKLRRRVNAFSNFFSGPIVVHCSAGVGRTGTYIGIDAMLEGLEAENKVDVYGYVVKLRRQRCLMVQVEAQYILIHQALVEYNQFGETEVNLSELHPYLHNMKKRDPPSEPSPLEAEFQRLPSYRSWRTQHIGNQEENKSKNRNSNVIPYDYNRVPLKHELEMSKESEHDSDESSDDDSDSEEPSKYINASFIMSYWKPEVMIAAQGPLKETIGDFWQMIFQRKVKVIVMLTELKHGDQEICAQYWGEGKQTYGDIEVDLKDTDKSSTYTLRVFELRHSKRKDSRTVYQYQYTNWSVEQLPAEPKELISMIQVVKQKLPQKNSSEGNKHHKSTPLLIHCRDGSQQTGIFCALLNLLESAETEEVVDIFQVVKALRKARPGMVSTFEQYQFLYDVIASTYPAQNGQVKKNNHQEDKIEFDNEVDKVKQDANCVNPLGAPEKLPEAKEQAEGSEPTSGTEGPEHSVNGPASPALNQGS
- Protocol notes: biochemical
- Type: biochemical
Exercise: for every item that follows, state its recorded IC50.
Numbers only, in µM.

Examples from the recorded data:
Molecule	Target under test	Endpoint	Val
O=C(O)c1cc2c(C#Cc3cccc(C(F)(F)F)c3)c(-c3ccccc3)oc2cc1O	CD45 (Homo sapiens, UniProt P08575)	IC50	4.2
O=C(O)c1cc2c(C#Cc3ccc(OC(F)(F)F)cc3)c(-c3ccccc3)oc2cc1O	CD45 (Homo sapiens, UniProt P08575)	IC50	3.6
O=C(O)c1cc2c(C#Cc3cc(F)cc(F)c3)c(-c3ccccc3)oc2cc1O	CD45 (Homo sapiens, UniProt P08575)	IC50	4.1

// query Quick one: give measured IC50 for Cn1c(-c2ccccc2C(F)(F)F)c(I)c2cc(C(=O)O)c(O)cc21 [Compound 207a]
// result 227
